test target: T1, RBFOX1 RRM (Homo sapiens, UniProt Q9NWB1 109-208)
T1 sequence: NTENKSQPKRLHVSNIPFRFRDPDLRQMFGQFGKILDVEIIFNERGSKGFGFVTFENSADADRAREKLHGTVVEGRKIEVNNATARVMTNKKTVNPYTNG
test protocol: EMSA; HiTS-Eq, 1 nM pool, 10 min; buffer printed only for the single-RNA assays: 10 mM Tris pH 7.5, 150 mM NaCl, 3.4 mM EDTA, 0.001% NP-40, 30 C
test context: tags: His6 N-terminal (pET28a); label: 5' 32P
Over roughly 16,000 sequences, “ka relative to ugcaugu” has its median near 0.0091; the highest 2% begin near 0.032. This is one part of a sample in which the highest values are shown more often than they occur.
reported metric: binding signal

Record request: binding signal value, item GAUUAGC (DNA:RNA) RNA: GGGAGACCGGAAUUCAGAUUGUCCGAUUAGCUUAAAUCCCGUCGUAGCCACCA DNA 1: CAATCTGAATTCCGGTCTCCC DNA 2: TGGTGGCTACGACGGGATT
0.0124 KA relative to UGCAUGU

Record request: binding signal value, item UCCUACG (DNA:RNA) RNA: GGGAGACCGGAAUUCAGAUUGUCCUCCUACGUUAAAUCCCGUCGUAGCCACCA DNA 1: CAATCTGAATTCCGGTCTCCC DNA 2: TGGTGGCTACGACGGGATT
0.00598 KA relative to UGCAUGU

Record request: binding signal value, item AACCACA (DNA:RNA) RNA: GGGAGACCGGAAUUCAGAUUGUCCAACCACAUUAAAUCCCGUCGUAGCCACCA DNA 1: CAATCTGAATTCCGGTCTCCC DNA 2: TGGTGGCTACGACGGGATT
0.00121 KA relative to UGCAUGU

Record request: binding signal value, item UGAGCCA (DNA:RNA) RNA: GGGAGACCGGAAUUCAGAUUGUCCUGAGCCAUUAAAUCCCGUCGUAGCCACCA DNA 1: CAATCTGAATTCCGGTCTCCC DNA 2: TGGTGGCTACGACGGGATT
0.00784 KA relative to UGCAUGU

Record request: binding signal value, item CGGGCAA (DNA:RNA) RNA: GGGAGACCGGAAUUCAGAUUGUCCCGGGCAAUUAAAUCCCGUCGUAGCCACCA DNA 1: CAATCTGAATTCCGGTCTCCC DNA 2: TGGTGGCTACGACGGGATT
0.0227 KA relative to UGCAUGU

Record request: binding signal value, item GCAUAAA (DNA:RNA) RNA: GGGAGACCGGAAUUCAGAUUGUCCGCAUAAAUUAAAUCCCGUCGUAGCCACCA DNA 1: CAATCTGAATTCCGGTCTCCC DNA 2: TGGTGGCTACGACGGGATT
0.00438 KA relative to UGCAUGU

Record request: binding signal value, item GCAUUGA (DNA:RNA) RNA: GGGAGACCGGAAUUCAGAUUGUCCGCAUUGAUUAAAUCCCGUCGUAGCCACCA DNA 1: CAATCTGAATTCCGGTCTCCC DNA 2: TGGTGGCTACGACGGGATT
0.0124 KA relative to UGCAUGU

Record request: binding signal value, item GGGCAGU (DNA:RNA) RNA: GGGAGACCGGAAUUCAGAUUGUCCGGGCAGUUUAAAUCCCGUCGUAGCCACCA DNA 1: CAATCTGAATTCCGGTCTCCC DNA 2: TGGTGGCTACGACGGGATT
0.0161 KA relative to UGCAUGU

Record request: binding signal value, item GUAUGAG (DNA:RNA) RNA: GGGAGACCGGAAUUCAGAUUGUCCGUAUGAGUUAAAUCCCGUCGUAGCCACCA DNA 1: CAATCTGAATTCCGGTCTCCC DNA 2: TGGTGGCTACGACGGGATT
0.0141 KA relative to UGCAUGU
